Each entry below lists one item and its recorded Kd value.
- assay.notes: Alizarin red (ARS) assay, glucose binding affinity
- condition.description: 20 mM phosphate buffer pH 7.4, room temperature
property.label: Kd (mM)

1. O=C(O)CNC(=O)c1cc(B(O)O)cc(C(=O)c2cc(B(O)O)cc(C(F)(F)F)c2)c1: 1.5
2. O=C(NC[C@H](NC(=O)c1cc2c(c(C(F)(F)F)c1)COB2O)C(=O)O)c1cc2c(c(C(F)(F)F)c1)COB2O: 0.2
3. O=C(O)c1cc(CNC(=O)c2ccc3c(c2F)B(O)OC3)cc(CNC(=O)c2ccc3c(c2F)B(O)OC3)c1: 1.1
4. O=C(O)CCC(=O)N1C[C@@H](NC(=O)c2cc3c(c(C(F)(F)F)c2)COB3O)[C@H](NC(=O)c2cc3c(c(C(F)(F)F)c2)COB3O)C1: 2.3
5. O=C(O)CN(CCNC(=O)c1cc2c(cc1F)COB2O)C(=O)c1cc2c(cc1F)COB2O: 1.5
6. O=C(O)c1cc(B(O)O)cc(C(=O)c2cc(F)cc(B(O)O)c2)c1: 1.1
7. O=C(O)CNC(=O)c1cc(B(O)O)cc(C(=O)c2cc(F)cc(B(O)O)c2)c1: 2
8. O=C(O)CN(CCNC(=O)c1cc(F)c2c(c1)B(O)OC2)C(=O)c1cc(F)c2c(c1)B(O)OC2: 2.7
9. O=C(O)CNC(=O)c1cc(B(O)O)cc(S(=O)(=O)c2cc(F)cc(B(O)O)c2)c1: 1.2
10. O=C(NC[C@H](NC(=O)c1cc2c(cc1F)COB2O)C(=O)O)c1cc2c(cc1F)COB2O: 4.2
11. O=C(O)CNC(=O)c1cc(B(O)O)cc(S(=O)(=O)c2cc(B(O)O)cc(S(F)(F)(F)(F)F)c2)c1: 0.3
12. O=C(O)CNC(=O)c1cc(B(O)O)cc(S(=O)(=O)c2cccc(B(O)O)c2)c1: 2.4
13. O=C(O)CN(CCNC(=O)c1cc2c(cc1C(F)(F)F)COB2O)C(=O)c1cc2c(cc1C(F)(F)F)COB2O: 4.2
14. O=C(O)CN=S(=O)(c1cc(OC(F)(F)F)cc(B(O)O)c1)c1cc(OC(F)(F)F)cc(B(O)O)c1: 0.8
15. O=C(O)CN=S(=O)(c1cc(B(O)O)cc(C(F)F)c1)c1cc(B(O)O)cc(C(F)F)c1: 2.1
16. O=C(O)CN(CCNC(=O)c1cc(Cl)c2c(c1)B(O)OC2)C(=O)c1cc(Cl)c2c(c1)B(O)OC2: 3.2
17. O=C(O)CN(CCNC(=O)c1cc2c(c(C(F)(F)F)c1)COB2O)C(=O)c1cc2c(c(C(F)(F)F)c1)COB2O: 1.3
18. O=C(O)CNC(=O)c1cc(B(O)O)cc(S(=O)(=O)c2cc(B(O)O)cc(C(F)(F)F)c2)c1: 1.7
19. O=C(NC[C@H](NC(=O)c1ccc2c(c1)B(O)OC2)C(=O)O)c1ccc2c(c1)B(O)OC2: 2
20. O=C(O)CN(CCNC(=O)c1cc2c(c(C(F)F)c1)COB2O)C(=O)c1cc2c(c(C(F)F)c1)COB2O: 0.8
21. O=C(O)c1cc(CNC(=O)c2ccc(B(O)O)cc2F)cc(CNC(=O)c2ccc(B(O)O)cc2F)c1: 3.1
22. O=C(O)CCC(=O)N1C[C@H](NC(=O)c2cc3c(c(C(F)(F)F)c2)COB3O)[C@@H](NC(=O)c2cc3c(c(C(F)(F)F)c2)COB3O)C1: 1.1
23. O=C(O)c1cc(B(O)O)cc(C(=O)c2cc(B(O)O)c(F)cc2F)c1: 0.3
24. O=C(NC[C@H](NC(=O)c1cc(F)c2c(c1)B(O)OC2)C(=O)O)c1cc(F)c2c(c1)B(O)OC2: 1.6
25. O=C(NCCCC[C@H](NC(=O)c1cc2c(cc1F)B(O)OC2)C(=O)O)c1ccc(B(O)O)cc1F: 3.2
26. O=C(O)CN=S(=O)(c1cc2c(c(C(F)(F)F)c1)COB2O)c1cc2c(c(C(F)(F)F)c1)COB2O: 3.7
27. O=C(O)CN(CCNC(=O)c1cc2c(c(S(=O)(=O)C(F)(F)F)c1)COB2O)C(=O)c1cc2c(c(S(=O)(=O)C(F)(F)F)c1)COB2O: 1.1
28. O=C(O)CN(CCNC(=O)c1cc2c(cc1F)B(O)OC2)C(=O)c1cc2c(cc1F)B(O)OC2: 2.6
29. O=C(O)CCC(=O)N1C[C@H](NC(=O)c2ccc3c(c2F)B(O)OC3)[C@@H](NC(=O)c2ccc3c(c2F)B(O)OC3)C1: 2.6

====

This section presents molecules with their documented Kd values.
- assay.notes: Alizarin red (ARS) assay, lactate binding affinity
- condition.description: 20 mM phosphate buffer pH 7.4, room temperature, N.D. = not detectable
property.label: Kd (mM)

1) O=C(O)c1cc(B(O)O)c(F)c(S(=O)(=O)c2ccc(F)c(B(O)O)c2)c1 [Example 11]: 17
2) O=C(O)CN(CCNC(=O)c1cc2c(c(C(F)F)c1)COB2O)C(=O)c1cc2c(c(C(F)F)c1)COB2O [Example 31]: 100
3) O=C(O)c1c(C(F)(F)F)cc(B(O)O)cc1S(=O)(=O)c1cc(B(O)O)cc(C(F)(F)F)c1 [Example 43]: 22
4) O=C(O)CNC(=O)c1cc(B(O)O)cc(S(=O)(=O)c2cc(F)cc(B(O)O)c2)c1 [Example 24]: 34
5) O=C(NC[C@H](NC(=O)c1cc2c(cc1F)COB2O)C(=O)O)c1cc2c(cc1F)COB2O [Example 16]: 37
6) O=C(O)c1cc(CNC(=O)c2ccc(B(O)O)cc2F)cc(CNC(=O)c2ccc(B(O)O)cc2F)c1 [Example 1]: 8.6
7) O=C(O)CNC(=O)c1cc(B(O)O)cc(C(=O)c2cc(B(O)O)cc(C(F)(F)F)c2)c1 [Example 19]: 17
8) O=C(O)CNC(=O)c1cc(B(O)O)cc(S(=O)(=O)c2cccc(B(O)O)c2)c1 [Example 39]: 27

====

Recorded Kd, one value per entry.
- assay.notes: Alizarin red (ARS) assay, lactate binding affinity
- condition.description: 20 mM phosphate buffer pH 7.4, room temperature, N.D. = not detectable
property.label: Kd (mM)

1) O=C(O)CN=S(=O)(c1cc(B(O)O)cc(C(F)F)c1)c1cc(B(O)O)cc(C(F)F)c1 [Example 34]: 24.9
2) O=C(O)CNC(=O)c1cc(B(O)O)cc(S(=O)(=O)c2cc(B(O)O)cc(C(F)(F)F)c2)c1 [Example 20]: 31
3) O=C(O)CN=S(=O)(c1cc(Cl)cc(B(O)O)c1)c1cc(Cl)cc(B(O)O)c1 [Example 35]: 20
4) O=C(O)CN(CCNC(=O)c1cc(Cl)c2c(c1)B(O)OC2)C(=O)c1cc(Cl)c2c(c1)B(O)OC2 [Example 32]: 60.6
5) O=C(O)CNC(=O)c1cc(B(O)O)cc(C(F)(F)c2cc(B(O)O)cc(C(F)(F)F)c2)c1 [Example 18]: 13
6) O=C(O)c1cc(B(O)O)cc(C(=O)c2cc(F)cc(B(O)O)c2)c1 [Example 12]: 18
7) O=C(O)CNC(=O)c1cc(B(O)O)cc(C(=O)c2cc(F)cc(B(O)O)c2)c1 [Example 22]: 20
8) O=C(O)CN=S(=O)(c1cc(OC(F)(F)F)cc(B(O)O)c1)c1cc(OC(F)(F)F)cc(B(O)O)c1 [Example 44]: 41

====

- assay.notes: Alizarin red (ARS) assay, glucose binding affinity
- condition.description: 20 mM phosphate buffer pH 7.4, room temperature
property.label: Kd (mM)

1. O=C(O)CN(CCNC(=O)c1ccc2c(c1F)B(O)OC2)C(=O)c1ccc2c(c1F)B(O)OC2: 0.8
2. NC(=O)CN(CCNC(=O)c1ccc(B(O)O)c(F)c1)C(=O)c1ccc(B(O)O)c(F)c1: 2.7
3. O=C(O)c1cc(CNC(=O)c2ccc(B(O)O)c(F)c2)cc(CNC(=O)c2ccc(B(O)O)c(F)c2)c1: 3.4
4. O=C(NCCCC[C@H](NC(=O)c1cc2c(cc1F)B(O)OC2)C(=O)O)c1cc2c(cc1F)B(O)OC2: 3.2

====

- assay.notes: Alizarin red (ARS) assay, lactate binding affinity
- condition.description: 20 mM phosphate buffer pH 7.4, room temperature, N.D. = not detectable
- Experimental: The alizarin-red binding assay is a colorimetric assay used to determine the inhibition affinity of boronate compounds to glucose. The assay is based on a colour shift of alizarin-red upon binding to boronate, which shift can be followed by change in absorbance in the 330-340 nm region. […] The analysis is carried out at room temperature with absorption readings at 330, 340 and 520 nm, respectively. […]
property.label: Kd (mM)

1. O=C(O)CN(CCNC(=O)c1cc(F)c2c(c1)B(O)OC2)C(=O)c1cc(F)c2c(c1)B(O)OC2: 34
2. O=C(O)CN(CCNC(=O)c1cc2c(cc1F)B(O)OC2)C(=O)c1cc2c(cc1F)B(O)OC2: 67.9
3. O=C(O)CN(CCNC(=O)c1cc2c(c(C(F)(F)F)c1)COB2O)C(=O)c1cc2c(c(C(F)(F)F)c1)COB2O: 11
4. O=C(NC[C@H](NC(=O)c1cc2c(c(C(F)(F)F)c1)COB2O)C(=O)O)c1cc2c(c(C(F)(F)F)c1)COB2O: 10
